Protocol: Example 18 cynomolgus monkey PK study (SC and IM)
Format: in vivo, cynomolgus monkeys
Condition info: male, cynomolgus monkey, plasma, sc, 20 mg/kg, SC 20 mg/kg equivalent of EFdA; Monkey 1002; 3 days; read-out: Example 18 plasma concentrations
Property name: concentration at 3 days (ng/mL)
Unit ng/mL implied. Number only.

[ask] Report concentration at 3 days for C#C[C@]1(COC(=O)CCCCCCCCC)O[C@@H](n2cnc3c(N)nc(F)nc32)C[C@@H]1OC(=O)CCCCCCCCC [Example 18] please.
[reply] 0.228

----------
Protocol: Example 18 cynomolgus monkey PK study (SC and IM)
Assay type: in vivo, cynomolgus monkeys
Condition info: male, cynomolgus monkey, plasma, sc, 20 mg/kg, SC 20 mg/kg equivalent of EFdA; Monkey 1002; 1 days; read-out: Example 18 plasma concentrations
Property name: concentration at 1 days (ng/mL)
Field format: number, assumed ng/mL, no unit text.

[ask] I'd like to know its concentration at 1 days. The compound in question is C#C[C@]1(COC(=O)CCCCCCCCC)O[C@@H](n2cnc3c(N)nc(F)nc32)C[C@@H]1OC(=O)CCCCCCCCC [Example 18]
[reply] 1.6

----------
Protocol: Example 18 cynomolgus monkey PK study (SC and IM)
Format: in vivo, cynomolgus monkeys
Condition info: male, cynomolgus monkey, plasma, intramuscular, 20 mg/kg equivalent of EFdA, IM 20 mg/kg equivalent of EFdA; Monkey 2002; 0.042 days; read-out: Example 18 plasma concentrations
Property name: concentration at 0.042 days (ng/mL)
Expressed in ng/mL, but write only the number.

[ask] Which concentration at 0.042 days reading was recorded for the compound C#C[C@]1(COC(=O)CCCCCCCCC)O[C@@H](n2cnc3c(N)nc(F)nc32)C[C@@H]1OC(=O)CCCCCCCCC ?
[reply] 82.6
